Parameter pIC50: see the listing below.
SYSTEM_UNDER_TEST: D168A mutant of the HCV NS3/4A 1b protease enzyme (Hepatitis C virus genotype 1b, UniProt P26663, D1194A)
Construct: 10× stocks of NS3/4A protease enzyme from Bioenza (Mountain View, Calif.); purchased Bioenza (Mountain View, Calif.)
ASSAY_NOTES: HCV Protease FRET Assay (IC50_APP), D168A mutant
Format: biochemical
CONDITIONS: apparent IC50, D168A mutant; read-out: IC50_APP, HCV D168A
pIC50: −log10 of the molar value.

# MOL, pIC50
rows = [
    ("[2H]C([2H])([2H])C(=CC(=O)CC[C@H](NC(=O)OC(C)(C)C)C(=O)N1C[C@H](Oc2nccc3cc(OC)ccc23)C[C@H]1C(=O)N[C@]1(C(=O)NS(=O)(=O)C2CC2)C[C@H]1C=C)C([2H])([2H])[2H]", "6.00 to 7.00"),
]

Next compound, pIC50 to be filled in.
The value of pIC50 measured for the compound "C=C(C)C(=O)C[C@H](NC(=O)OC(C)(C)C)C(=O)N1C[C@H](Oc2nccc3cc(OC)ccc23)C[C@H]1C(=O)N[C@]1(C(=O)NS(=O)(=O)C2CC2)C[C@H]1CC" turned out to be 7.00 to 8.00

====

SYSTEM_UNDER_TEST: wild type HCV NS3/4A 1b protease enzyme (Hepatitis C virus genotype 1b)
Construct: 10× stocks of NS3/4A protease enzyme from Bioenza (Mountain View, Calif.); purchased Bioenza (Mountain View, Calif.)
ASSAY_NOTES: HCV Protease FRET Assay (IC50_APP), wild type
Format: biochemical
CONDITIONS: read-out: IC50_APP, WT; apparent IC50, wild type NS3/4A 1b
Parameter IC50: see the listing below.

// worked examples, IC50 included
# MOL, SYSTEM_UNDER_TEST, RESULT
records = [
    ("C=CC(=O)NC[C@H](NC(=O)CCCC(=O)NCCCOCCOCCOCCCNC(=O)CCCC[C@@H]1SC[C@@H]2NC(=O)N[C@@H]21)C(=O)N1C[C@H](Oc2nccc3cc(OC)ccc23)C[C@H]1C(=O)N[C@]1(C(=O)NS(=O)(=O)C2CC2)C[C@H]1C=C", "wild type HCV NS3/4A 1b protease enzyme (Hepatitis C virus genotype 1b)", "< 10 nM"),
    ("C=C[C@@H]1C[C@]1(NC(=O)[C@@H]1C[C@@H](Oc2cc(-c3ccccc3)nc3cc(OC)ccc23)CN1C(=O)CNC(=O)c1ccc([N+](=O)[O-])cc1F)C(=O)NS(=O)(=O)c1ccccc1", "wild type HCV NS3/4A 1b protease enzyme (Hepatitis C virus genotype 1b)", "100 to 1000 nM"),
]

Next compound, IC50 to be filled in.
The value of IC50 measured for the compound "C=C[C@@H]1C[C@]1(NC(=O)[C@@H]1C[C@@H](Oc2nccc3cc(OC)ccc23)CN1C(=O)[C@H](CC(=O)/C(C)=C/C)NC(=O)OC(C)(C)C)C(=O)NS(=O)(=O)C1CC1" turned out to be < 10 nM

====

Parameter pIC50: see the listing below.
SYSTEM_UNDER_TEST: D168A mutant of the HCV NS3/4A 1b protease enzyme (Hepatitis C virus genotype 1b, UniProt P26663, D1194A)
Construct: 10× stocks of NS3/4A protease enzyme from Bioenza (Mountain View, Calif.); purchased Bioenza (Mountain View, Calif.)
ASSAY_NOTES: HCV Protease FRET Assay (IC50_APP), D168A mutant
Type: biochemical
CONDITIONS: apparent IC50, D168A mutant; read-out: IC50_APP, HCV D168A
pIC50: −log10 of the molar value.

# MOLECULE, ENDPOINT, RESULT
records = [
    ("C=C[C@@H]1C[C@]1(NC(=O)[C@@H]1C[C@@H](Oc2cc(-c3ccccc3)nc3cc(OC)ccc23)CN1C(=O)CNC(=O)/C=C/C)C(=O)NS(=O)(=O)C1CC1 [Compound I-57]", "pIC50", "5.00 to 6.00"),
    ("C#CCN(C)C(=O)CCCC(=O)N[C@@H](CNC(=O)C=C)C(=O)N1C[C@H](Oc2cc(-c3ccccc3)nc3cc(OC)ccc23)C[C@H]1C(=O)N[C@]1(C(=O)NS(=O)(=O)c2ccccc2)C[C@H]1C=C [Compound I-42]", "pIC50", "6.00 to 7.00"),
    ("C=CC(=O)NC[C@H](NC(=O)CCCC(=O)NCCCOCCOCCOCCCNC(=O)CCCC[C@@H]1SC[C@@H]2NC(=O)N[C@@H]21)C(=O)N1C[C@H](Oc2nccc3cc(OC)ccc23)C[C@H]1C(=O)N[C@]1(C(=O)NS(=O)(=O)C2CC2)C[C@H]1C=C [Compound I-104]", "pIC50", "7.00 to 8.00"),
    ("C=C[C@@H]1C[C@]1(NC(=O)[C@@H]1C[C@@H](Oc2nccc3cc(OC)ccc23)CN1C(=O)[C@H](CCC(=O)/C=C/C(C)(C)C)NC(=O)OC(C)(C)C)C(=O)NS(=O)(=O)C1CC1 [Compound I-143]", "pIC50", "5.00 to 6.00"),
]

Next molecule, pIC50 to be filled in.
The value of pIC50 measured for the molecule C=C[C@@H]1C[C@]1(NC(=O)[C@@H]1C[C@@H](Oc2nccc3cc(OC)ccc23)CN1C(=O)[C@H](CCC(=O)/C=C/C)NC(=O)OC(C)(C)C)C(=O)NS(=O)(=O)C1CC1 [Compound I-139] turned out to be > 8.00
